Source listed as patent US20140171431A1.

Measured on: Lp-PLA2 in rabbit serum (Oryctolagus cuniculus, UniProt G1SE06)
Construct: from tissue; host or cells: rabbit serum
Sequence (G1SE06 22-423): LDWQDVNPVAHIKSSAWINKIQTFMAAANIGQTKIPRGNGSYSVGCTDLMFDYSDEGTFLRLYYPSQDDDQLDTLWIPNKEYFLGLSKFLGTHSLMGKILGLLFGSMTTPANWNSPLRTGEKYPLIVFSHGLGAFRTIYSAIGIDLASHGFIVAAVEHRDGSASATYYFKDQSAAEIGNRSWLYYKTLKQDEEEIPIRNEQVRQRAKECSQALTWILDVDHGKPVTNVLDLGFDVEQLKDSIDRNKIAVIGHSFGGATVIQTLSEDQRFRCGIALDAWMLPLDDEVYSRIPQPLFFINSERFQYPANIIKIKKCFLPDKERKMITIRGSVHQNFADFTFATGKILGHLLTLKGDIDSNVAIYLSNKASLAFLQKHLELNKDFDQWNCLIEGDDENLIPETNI
Assay: In vitro inhibitory activity towards the enzyme Lp-PLA2 in rabbit serum, [3H]PAF substrate
Format: biochemical
Test context: 100 nM; rabbit serum; read-out: inhibition, %
Binary classification by inhibition at 0.1 µM, with 80% as an inclusive lower bound for met; all other cases are not met.

[
  {
    "Chemical smiles": "CCN1CCN(Cc2nnc(Cn3c(SCc4ccc(F)cc4)nc(=O)c4c3CCC4)n2Cc2ccc(-c3ccc(C(F)(F)F)cc3)cc2)CC1",
    "Measured on": "Lp-PLA2 in rabbit serum (Oryctolagus cuniculus, UniProt G1SE06)",
    "Assigned category": "met"
  },
  {
    "Chemical smiles": "CCS(=O)(=O)NCc1nnc(Cn2c(SCc3ccc(F)cc3)nc(=O)c3c2CCC3)n1Cc1ccc(-c2ccc(C(F)(F)F)cc2)cc1",
    "Measured on": "Lp-PLA2 in rabbit serum (Oryctolagus cuniculus, UniProt G1SE06)",
    "Assigned category": "not met"
  },
  {
    "Chemical smiles": "CN(C)C(=O)c1cnc(Cn2c(SCc3ccc(F)cc3)nc(=O)c3c2CCC3)n1Cc1ccc(-c2ccc(C(F)(F)F)cc2)cc1",
    "Measured on": "Lp-PLA2 in rabbit serum (Oryctolagus cuniculus, UniProt G1SE06)",
    "Assigned category": "met"
  },
  {
    "Chemical smiles": "CCOC(=O)c1cnc(Cn2c(SCc3ccc(F)cc3)nc(=O)c3c2CCC3)n1Cc1ccc(-c2ccc(C(F)(F)F)cc2)cc1",
    "Measured on": "Lp-PLA2 in rabbit serum (Oryctolagus cuniculus, UniProt G1SE06)",
    "Assigned category": "not met"
  },
  {
    "Chemical smiles": "Cn1cc(Cc2cn(Cc3nc4ccccc4n3Cc3ccc(-c4ccc(C(F)(F)F)cc4)cc3)c(SCc3ccc(F)cc3)nc2=O)cn1",
    "Measured on": "Lp-PLA2 in rabbit serum (Oryctolagus cuniculus, UniProt G1SE06)",
    "Assigned category": "not met"
  }
]

-- ask Please check the record CN(Cc1ccc(F)cc1)Cc1cnc(Cn2c(SCc3ccc(F)cc3)nc(=O)c3c2CCC3)n1Cc1ccc(-c2ccc(C(F)(F)F)cc2)cc1 and state if its inhibition at 0.1 µM is at or above 80%.
-- reply met

-- ask Please check the record CCN(CC)CCN(C)Cc1onc(Cn2c(SCc3ccc(F)cc3)nc(=O)c3c2CCC3)c1Cc1ccc(-c2ccc(C(F)(F)F)cc2)cc1 and state if its inhibition at 0.1 µM is at or above 80%.
-- reply met

-- ask Please check the record CN(C)/N=C/c1nnc(Cn2c(SCc3ccc(F)cc3)nc(=O)c3c2CCC3)n1Cc1ccc(-c2ccc(C(F)(F)F)cc2)cc1 and state if its inhibition at 0.1 µM is at or above 80%.
-- reply met

-- ask Please check the record O=c1nc(SCc2ccc(F)cc2)n(Cc2nnc(C3CC3)n2Cc2ccc(-c3ccc(C(F)(F)F)cc3)cc2)c2c1CCC2 and state if its inhibition at 0.1 µM is at or above 80%.
-- reply not met

-- ask Please check the record CC(C)(C)N/N=C/c1nnc(Cn2c(SCc3ccc(F)cc3)nc(=O)c3c2CCC3)n1Cc1ccc(-c2ccc(C(F)(F)F)cc2)cc1 and state if its inhibition at 0.1 µM is at or above 80%.
-- reply not met

-- ask Please check the record CCN1CCC[C@H]1CNCc1nnc(Cn2c(SCc3ccc(F)cc3)nc(=O)c3c2CCC3)n1Cc1ccc(-c2ccc(C(F)(F)F)cc2)cc1 and state if its inhibition at 0.1 µM is at or above 80%.
-- reply met

-- ask Please check the record CC(=O)NCc1nnc(Cn2c(SCc3ccc(F)cc3)nc(=O)c3c2CCC3)n1Cc1ccc(-c2ccc(C(F)(F)F)cc2)cc1 and state if its inhibition at 0.1 µM is at or above 80%.
-- reply not met

-- ask Please check the record CCN(CC)Cc1nnc(Cn2c(SCc3ccc(F)cc3)nc(=O)c3c2CCC3)n1Cc1ccc(-c2ccc(C(F)(F)F)cc2)cc1 and state if its inhibition at 0.1 µM is at or above 80%.
-- reply met

====

Measured on: Lp-PLA2 in human serum (Homo sapiens, UniProt Q13093)
Construct: from tissue
Sequence (Q13093 22-441): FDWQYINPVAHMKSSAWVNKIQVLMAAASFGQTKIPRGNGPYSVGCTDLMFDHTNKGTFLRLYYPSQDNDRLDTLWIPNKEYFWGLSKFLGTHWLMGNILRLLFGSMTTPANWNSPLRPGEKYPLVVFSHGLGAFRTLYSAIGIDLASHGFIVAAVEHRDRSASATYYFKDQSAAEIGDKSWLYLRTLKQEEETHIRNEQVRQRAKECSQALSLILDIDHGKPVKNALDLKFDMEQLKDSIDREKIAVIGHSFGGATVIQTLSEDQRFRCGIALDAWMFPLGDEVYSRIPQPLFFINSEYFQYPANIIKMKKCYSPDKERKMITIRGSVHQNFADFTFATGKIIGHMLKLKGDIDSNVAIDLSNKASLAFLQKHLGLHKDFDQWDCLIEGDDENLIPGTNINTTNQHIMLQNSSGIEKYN
Assay: In vitro inhibitory activity towards the enzyme Lp-PLA2 in human serum, [3H]PAF substrate
Format: biochemical
Test context: 10 nM; human serum; read-out: inhibition, %
Endpoint name: inhibition at 0.01 µM (%)
Give the value in % but do not write % after it.

Solved cases below.
[
  {
    "Molecule": "CCN(CC)CCN(CC(=O)O)Cc1nnc(Cn2c(SCc3ccc(F)cc3)nc(=O)c3c2CCC3)n1Cc1ccc(-c2ccc(C(F)(F)F)cc2)cc1 [Example 135]",
    "Measured on": "Lp-PLA2 in human serum (Homo sapiens, UniProt Q13093)",
    "Endpoint name": "inhibition at 0.01 µM",
    "Data value": 66
  },
  {
    "Molecule": "COC(=O)C(C)(C)NCc1nnc(Cn2c(SCc3ccc(F)cc3)nc(=O)c3c2CCC3)n1Cc1ccc(-c2ccc(C(F)(F)F)cc2)cc1 [Example 85]",
    "Measured on": "Lp-PLA2 in human serum (Homo sapiens, UniProt Q13093)",
    "Endpoint name": "inhibition at 0.01 µM",
    "Data value": 59
  },
  {
    "Molecule": "C[N+](C)(Cc1ccc(F)cc1)Cc1nnc(Cn2c(SCc3ccc(F)cc3)nc(=O)c3c2CCC3)n1Cc1ccc(-c2ccc(C(F)(F)F)cc2)cc1 [Example 76]",
    "Measured on": "Lp-PLA2 in human serum (Homo sapiens, UniProt Q13093)",
    "Endpoint name": "inhibition at 0.01 µM",
    "Data value": 100
  },
  {
    "Molecule": "CNC(=S)NCc1nnc(Cn2c(SCc3ccc(F)cc3)nc(=O)c3c2CCC3)n1Cc1ccc(-c2ccc(C(F)(F)F)cc2)cc1 [Example 113]",
    "Measured on": "Lp-PLA2 in human serum (Homo sapiens, UniProt Q13093)",
    "Endpoint name": "inhibition at 0.01 µM",
    "Data value": 56
  },
  {
    "Molecule": "Cc1nnc(Cn2cc(Cc3cnn(C)c3)c(=O)nc2SCc2ccc(F)cc2)n1Cc1ccc(-c2ccc(C(F)(F)F)cc2)cc1 [Example 65]",
    "Measured on": "Lp-PLA2 in human serum (Homo sapiens, UniProt Q13093)",
    "Endpoint name": "inhibition at 0.01 µM",
    "Data value": 82
  },
  {
    "Molecule": "CN(C)Cc1nnc(Cn2c(SCc3ccc(F)cc3)nc(=O)c3c2CCC3)n1Cc1ccc(-c2ccc(C(F)(F)F)cc2)cc1 [Example 75]",
    "Measured on": "Lp-PLA2 in human serum (Homo sapiens, UniProt Q13093)",
    "Endpoint name": "inhibition at 0.01 µM",
    "Data value": 85
  }
]

Query CCCc1nnc(Cn2c(SCc3ccc(F)cc3)nc(=O)c3c2CCC3)n1Cc1ccc(-c2ccc(C(F)(F)F)cc2)cc1 [Example 66] on Lp-PLA2 in human serum (Homo sapiens, UniProt Q13093); inhibition at 0.01 µM returned: 88

Query COC(=O)CN(C)Cc1nnc(Cn2c(SCc3ccc(F)cc3)nc(=O)c3c2CCC3)n1Cc1ccc(-c2ccc(C(F)(F)F)cc2)cc1 [Example 62] on Lp-PLA2 in human serum (Homo sapiens, UniProt Q13093); inhibition at 0.01 µM returned: 83

Query CC(C)N(C)Cc1nnc(Cn2c(SCc3ccc(F)cc3)nc(=O)c3c2CCC3)n1Cc1ccc(-c2ccc(C(F)(F)F)cc2)cc1 [Example 82] on Lp-PLA2 in human serum (Homo sapiens, UniProt Q13093); inhibition at 0.01 µM returned: 77

Query CCN(CC)CCN(C)Cc1onc(Cn2c(SCc3ccc(F)cc3)nc(=O)c3c2CCC3)c1Cc1ccc(-c2ccc(C(F)(F)F)cc2)cc1 [Example 159] on Lp-PLA2 in human serum (Homo sapiens, UniProt Q13093); inhibition at 0.01 µM returned: 100
